# pKi per record follows
target: Melanocortin receptor 4 (Homo sapiens, UniProt P32245); experiment: Displacement of [125I]NDP-MSH from MC4R receptor in HEK293 cells
Sequence (P32245 whole entry): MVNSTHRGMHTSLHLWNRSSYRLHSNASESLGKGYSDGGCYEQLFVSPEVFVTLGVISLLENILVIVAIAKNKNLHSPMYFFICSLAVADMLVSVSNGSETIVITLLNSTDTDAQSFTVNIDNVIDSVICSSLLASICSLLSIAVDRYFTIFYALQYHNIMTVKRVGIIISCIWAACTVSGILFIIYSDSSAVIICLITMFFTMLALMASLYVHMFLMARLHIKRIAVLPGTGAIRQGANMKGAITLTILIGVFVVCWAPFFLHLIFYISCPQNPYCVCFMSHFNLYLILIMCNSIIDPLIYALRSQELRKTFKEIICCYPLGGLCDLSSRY
pKi: −log10 of the molar value.
Readout Kind: pKi

>  <Compound Structure String>
CC(C)C[C@H](N)c1cc(C(F)(F)F)ccc1N1CCN(C(=O)[C@@H](Cc2ccc(Cl)cc2Cl)NC(=O)C2CCNCC2)CC1

>  <Reported>
9.10

$$$$
>  <Compound Structure String>
CC(C)C[C@@H](N)c1cccc(F)c1N1CCN(C(=O)[C@@H](Cc2ccc(Cl)cc2Cl)NC(=O)CN)CC1

>  <Reported>
8.15

$$$$
>  <Compound Structure String>
CC(=O)N[C@H](Cc1ccc(Cl)cc1Cl)C(=O)N1CCN(c2ccc(C(F)(F)F)cc2[C@@H](N)CC(C)C)CC1

>  <Reported>
8.74

$$$$
>  <Compound Structure String>
CC(C)C[C@H](N)c1cccc(C(F)(F)F)c1N1CCN(C(=O)[C@@H](Cc2ccc(Cl)cc2Cl)NC(=O)CN)CC1

>  <Reported>
8.48

$$$$
